- Tested on: chickweed (common chickweed, Stellaria media)
- ASSAY METHOD TEXT: Test D controlled growth environment herbicide test, pre- and postemergence
- Format: in vivo
- TEST PARAMETERS: Preemergence, 62 g ai/ha; scale 0 to 100 (0 no effect, 100 complete control)
QUANTITY KIND: Plant response rating, Chickweed
Form rule: numeric answer, no unit written next to it.

Worked cases, Plant response rating, Chickweed given:
>>> observed_measurement("Cc1nn(C)c(=O)c(-c2cccc3ccccc23)c1O")
100
>>> observed_measurement("Cc1ccc2ccccc2c1-c1c(OC(=O)OC(C)C)c(C)nn(C)c1=O")
100
>>> observed_measurement("Cn1nc(Br)c(O)c(-c2cccc3ccccc23)c1=O")
95

Next molecule, Plant response rating, Chickweed to be filled in.
Cc1ccc2sc(C)c(-c3c(OC(=O)OC(C)C)c(C)nn(C)c3=O)c2c1 yielded Plant response rating, Chickweed of 100

---

The reader will find reported Plant response rating, Barley, Winter values listed item by item below.
- Test system: barley, winter (winter barley, Hordeum vulgare)
- ASSAY METHOD TEXT: Test D controlled growth environment herbicide test, pre- and postemergence
- Assay type: in vivo
- TEST PARAMETERS: Preemergence, 62 g ai/ha; scale 0 to 100 (0 no effect, 100 complete control)
Simply state the number, no unit and no words.

Some entries whose results are on file:
>>> observed_measurement("CCc1sc2ccc(C)cc2c1-c1c(O)c(C)nn(C)c1=O")
0
>>> observed_measurement("CC(=O)Oc1c(C)nn(C)c(=O)c1-c1c(C)sc2ccc(Cl)cc12")
0
>>> observed_measurement("Cn1nc(Br)c(O)c(-c2cccc3ccccc23)c1=O")
0
>>> observed_measurement("Cc1nn(C)c(=O)c(-c2c(C)sc3c(C)cc(Cl)cc23)c1O")
0

The reported Plant response rating, Barley, Winter of the molecule Cc1ccc2sc(Br)c(-c3c(O)c(C)nn(C)c3=O)c2c1 was 0

The recorded Plant response rating, Barley, Winter for Cc1nn(C)c(=O)c(-c2ccc(Br)c3ccccc23)c1O is 0

---

- System: crabgrass, Brazilian (Brazilian crabgrass, Digitaria horizontalis)
- ASSAY METHOD TEXT: Test E greenhouse herbicide test, pre- and postemergence
- Assay type: in vivo
- TEST PARAMETERS: 62 g ai/ha, Preemergence; scale 0 to 100 (0 no effect, 100 complete control)
QUANTITY KIND: Plant response rating, Crabgrass, Brazil
Write no unit; give the number alone.

Please review the entries below; each comes with its answer.
>>> observed_measurement("COC(=O)Oc1c(C)nn(C)c(=O)c1-c1c(C)sc2ccc(C)cc12")
90
>>> observed_measurement("CCCC(=O)Oc1c(C)nn(C)c(=O)c1-c1c(C)sc2ccc(C)cc12")
35
>>> observed_measurement("Cc1cc2ccccc2c(-c2c(O)c(C)nn(C)c2=O)c1C")
10

Plant response rating, Crabgrass, Brazil reading for Cc1ccc2ccccc2c1-c1c(OC(=O)OC(C)C)c(C)nn(C)c1=O : 60

Record summary for CCc1sc2c(C)cc(C)cc2c1-c1c(O)c(C)nn(C)c1=O : reported Plant response rating, Crabgrass, Brazil = 0

---

- Tested on: kochia (Kochia scoparia)
- ASSAY METHOD TEXT: Test C greenhouse herbicide test, postemergence
- Format: in vivo
- TEST PARAMETERS: Postemergence, 31 g ai/ha; scale 0 to 100 (0 no effect, 100 complete control)
QUANTITY KIND: Plant response rating, Kochia
Please give the numeric answer without any surrounding text.

Some compounds with known Plant response rating, Kochia results, for comparison:
>>> observed_measurement("CC(=O)Oc1c(C)nn(C)c(=O)c1-c1c(C)sc2ccc(C(F)(F)F)cc12")
85
>>> observed_measurement("CCC(=O)Oc1c(C)nn(C)c(=O)c1-c1ccc(Br)c2ccccc12")
95
>>> observed_measurement("Cc1ccc2ccccc2c1-c1c(O)c(C(F)(F)F)nn(C)c1=O")
0

// moving on: another record for Plant response rating, Kochia
Note to self: Plant response rating, Kochia recorded for Cc1nn(C)c(=O)c(-c2c(C)sc3ccc(C(F)(F)F)cc23)c1O was 90

---

- Test system: field violet (Viola arvensis)
- ASSAY METHOD TEXT: Test D controlled growth environment herbicide test, pre- and postemergence
- Assay type: in vivo
- TEST PARAMETERS: Preemergence, 62 g ai/ha; scale 0 to 100 (0 no effect, 100 complete control)
QUANTITY KIND: Plant response rating, Field Violet
The reply should be a number, written without any unit.

See these solved cases before continuing.
>>> observed_measurement("Cc1nn(C)c(=O)c(-c2ccc(Br)c3ccccc23)c1O")
100
>>> observed_measurement("Cc1ccc2ccccc2c1-c1c(OC(=O)OC(C)C)c(C)nn(C)c1=O")
75

Entry CCc1sc2c(C)cc(C)cc2c1-c1c(O)c(C)nn(C)c1=O , Plant response rating, Field Violet reported as 100

The measured Plant response rating, Field Violet associated with Cc1cc(C)c2sc(C)c(-c3c(O)c(C)nn(C)c3=O)c2c1 reads 100

---

- Test system: wheat, spring (spring wheat, Triticum aestivum)
- ASSAY METHOD TEXT: Test D controlled growth environment herbicide test, pre- and postemergence
- Type: in vivo
- TEST PARAMETERS: Postemergence, 31 g ai/ha; scale 0 to 100 (0 no effect, 100 complete control)
QUANTITY KIND: Wheat, Spring plant response rating
Give a plain numeric answer without units written out.

// solved cases for Wheat, Spring plant response rating follow
>>> observed_measurement("Cc1nn(C)c(=O)c(-c2ccc(Br)c3ccccc23)c1O")
0
>>> observed_measurement("Cc1cc(C)c2sc(C)c(-c3c(O)c(C)nn(C)c3=O)c2c1")
0
>>> observed_measurement("CCc1sc2ccc(C)cc2c1-c1c(O)c(C)nn(C)c1=O")
10

Item: Cn1nc(Br)c(O)c(-c2cccc3ccccc23)c1=O | Wheat, Spring plant response rating: 0

Note to self: Wheat, Spring plant response rating recorded for CC(=O)Oc1c(C)nn(C)c(=O)c1-c1c(C)sc2ccc(Cl)cc12 was 15

The reported value for COC(=O)Oc1c(C)nn(C)c(=O)c1-c1c(C)sc2ccc(C)cc12 in terms of Wheat, Spring plant response rating is 0

---

- Tested on: soybean (Glycine max)
- ASSAY METHOD TEXT: Test E greenhouse herbicide test, pre- and postemergence
- Assay type: in vivo
- TEST PARAMETERS: 125 g ai/ha, Preemergence; scale 0 to 100 (0 no effect, 100 complete control)
hey, just use 1.0 if measured Plant response rating, Soybean is less than 20, otherwise 0.0

Could you please tell me whether Plant response rating, Soybean recorded for Cc1ccc2sc(C)c(-c3c(OC(=O)OC(C)C)c(C)nn(C)c3=O)c2c1 is less than 20?
1.0

Does the reported Plant response rating, Soybean of the following compound sit strictly below 20? Cc1ccc2ccccc2c1-c1c(O)c(I)nn(C)c1=O
0.0

Threshold test, Plant response rating, Soybean < 20: COC(=O)Oc1c(C)nn(C)c(=O)c1-c1c(C)sc2ccc(C)cc12
1.0

Input Cc1nn(C)c(=O)c(-c2ccc(Br)c3ccccc23)c1O ; condition: Plant response rating, Soybean strictly below 20. Does it hold?
0.0

State whether 20 exceeds Plant response rating, Soybean recorded for CCc1sc2ccc(C)cc2c1-c1c(O)c(C)nn(C)c1=O .
1.0

---

Reported Plant response rating, Deadnettle values for a set of compounds
- Tested on: deadnettle (henbit deadnettle, Lamium amplexicaule)
- ASSAY METHOD TEXT: Test D controlled growth environment herbicide test, pre- and postemergence
- Format: in vivo
- TEST PARAMETERS: Postemergence, 250 g ai/ha; scale 0 to 100 (0 no effect, 100 complete control)

Field Plant response rating, Deadnettle (deadnettle (henbit deadnettle, Lamium amplexicaule)), entry Cn1nc(Br)c(O)c(-c2cccc3ccccc23)c1=O : 65

---

- System: oilseed rape (Brassica napus)
- ASSAY METHOD TEXT: Test C greenhouse herbicide test, pre- and postemergence
- Format: in vivo
- TEST PARAMETERS: postemergence, 62 g ai/ha; scale 0 to 100, 0 no effect, 100 complete control
QUANTITY KIND: Oilseed Rape plant response rating
Enter a number only.

// worked examples, Oilseed Rape plant response rating included
>>> observed_measurement("CCC(=O)Oc1c(C)nn(C)c(=O)c1-c1c(C)ccc2ccccc12")
0
>>> observed_measurement("CC(=O)Oc1c(C)nn(C)c(=O)c1-c1c(C)cc(C)c2ccccc12")
5
>>> observed_measurement("CCc1ccc2ccccc2c1-c1c(O)c(C)nn(C)c1=O")
60
>>> observed_measurement("COC(=O)Oc1cnn(C)c(=O)c1-c1c(C)sc2ccccc12")
0

Here is the next item to consider.
Lab note: Cc1cc2ccccc2c(-c2c(O)c(C)nn(C)c2=O)c1C gave Oilseed Rape plant response rating of 30
